FYI, the data here is from patent US20250108029A1.

# Tested on: IRFs
# testDescription: Interferon pathway (IRF) activity in reporter cells fed supernatants of R848-stimulated PBMCs
# Type: cell-based, human
# experimentalContext: Homo sapiens, PBMC, read-out: IC50 IFR
experimentalReadout: IC50 (µM)

- COc1cccc(NN=C(C#N)C#N)c1 [Compound of formula (V)]: 3
